System: HEK293T cells carrying the ATF4 luciferase reporter
Test: ATF4-Luc assay (in vitro model of vanishing white matter disease)
Type: cell-based
Conditions: Homo sapiens, HEK-293T; HEK293T cells with ATF4 luciferase reporter, 1 μg/mL tunicamycin, 7 hours, One Glo luminescence
pEC50: −log10 of the molar value.
Endpoint name: pEC50

>>> result("C[C@@]1(C(=O)NC23CC(NC(=O)COc4ccc(Cl)c(F)c4)(C2)C3)COc2cc3c(cc21)OC(F)(F)O3")
"< 5.70"
>>> result("O=C(COc1ccc(Cl)c(F)c1)NC12CC(NC(=O)[C@@H]3CN(C(=O)[C@H]4C[C@H]4F)c4cc(Cl)ccc4O3)(C1)C2 (single isomer, unassigned)")
"6.60 to 7.30"
>>> result("O=C(COc1ccc(Cl)c(F)c1)NC12CC(NC(=O)C3CN(C(=O)C4CC4(F)F)c4cc(Cl)ccc4O3)(C1)C2 (stereo not drawn)")
"6.30 to 6.60"
>>> result("O=C(COc1ccc(Cl)c(F)c1)NC12CC(NC(=O)C3CN(C(=O)CO)c4cc(Cl)ccc4O3)(C1)C2 (stereo not drawn)")
"> 8.00"
>>> result("COC(C)(C)CN1CC(C(=O)NC23CC(NC(=O)COc4ccc(Cl)c(F)c4)(C2)C3)Oc2ccc(Cl)cc21 (stereo not drawn)")
"7.30 to 8.00"
>>> result("O=C(COc1ccc(Cl)c(F)c1)NC12CC(NC(=O)C3CN(C(=O)c4ccc(OC(F)(F)F)cc4)c4cc(Cl)ccc4O3)(C1)C2 (stereo not drawn)")
"5.70 to 6.30"

----------
Test system: HEK293T cells carrying the ATF4 luciferase reporter
Experiment: ATF4-Luc assay (in vitro model of vanishing white matter disease)
Type: cell-based
Settings: Homo sapiens, HEK-293T; HEK293T cells with ATF4 luciferase reporter, 1 μg/mL tunicamycin, 7 hours, One Glo luminescence
pEC50: −log10 of the molar value.
# key: entry, value: pEC50
Endpoint name: pEC50

>>> result("O=C(COc1ccc(Cl)c(F)c1)NC12CC(NC(=O)C3CN(C(=O)c4cccc(C(F)(F)F)c4)c4cc(Cl)ccc4O3)(C1)C2 (centres unmarked) [Compound 160]")
"< 5.70"
>>> result("O=C(COc1ccc(Cl)c(F)c1)NC12CCC(NC(=O)[C@H]3COc4ccccc4O3)(CC1)[C@@H](O)C2 [Compound 126]")
"> 8.00"
>>> result("O=C(COc1ccc(Cl)c(F)c1)NC12CCC(NC(=O)C3CCc4cc(F)ccc4O3)(CC1)[C@@H](O)C2 (some centres unmarked) [Compound 200]")
"> 8.00"
>>> result("O=C(COc1ccc(Cl)c(F)c1)NC12CC(NC(=O)[C@@H]3CCc4cc(F)ccc4O3)(C1)C2 [Compound 121]")
"> 8.00"
>>> result("O=C(COc1ccc(Cl)c(F)c1)NC12CCC(NC(=O)C3Oc4ccccc4O3)(CC1)CC2 [Compound 100]")
"< 5.70"
>>> result("CN1C[C@@H](C(=O)NC23CCC(NC(=O)COc4ccc(Cl)c(F)c4)(CC2)[C@@H](O)C3)Oc2ccc(Cl)cc21 [Compound 107]")
"> 8.00"
>>> result("Cc1oncc1C(=O)N1CC(C(=O)NC23CC(NC(=O)COc4ccc(Cl)c(F)c4)(C2)C3)Oc2ccc(Cl)cc21 (centres unmarked) [Compound 153]")
"7.30 to 8.00"
>>> result("O=C(COc1ccc(Cl)c(F)c1)NC12CC(NC(=O)C3CN(C(=O)CC(F)(F)F)c4cc(Cl)ccc4O3)(C1)C2 (centres unmarked) [Compound 182]")
"6.60 to 7.30"
>>> result("O=C(COc1ccc(Cl)c(F)c1)NC12CCC(NC(=O)C3CNc4ccccc4O3)(CC1)C[C@@H]2O (some centres unmarked) [Compound 110]")
"7.30 to 8.00"
>>> result("O=C(COc1ccc(F)c(F)c1)NC12CC(NC(=O)C3COc4cc(Cl)c(Cl)cc4O3)(C1)C2 (centres unmarked) [Compound 117]")
"> 8.00"
>>> result("O=C(COc1ccc(Cl)c(F)c1)NC12CC(NC(=O)C3CN(C(=O)CC(F)(F)C(F)(F)F)c4cc(Cl)ccc4O3)(C1)C2 (centres unmarked) [Compound 141]")
"7.30 to 8.00"
>>> result("NS(=O)(=O)c1ccc(S(=O)(=O)N2CC(C(=O)NC34CC(NC(=O)COc5ccc(Cl)c(F)c5)(C3)C4)Oc3ccc(Cl)cc32)cc1 (centres unmarked) [Compound 174]")
"6.60 to 7.30"
>>> result("O=C(COc1ccc(Cl)c(F)c1)NC12CCC(NC(=O)[C@@H]3CCc4cc(F)ccc4O3)(CC1)[C@@H](O)C2 [Compound 201]")
"> 8.00"
>>> result("O=C(NC12CC(NC(=O)C3COc4cc(Cl)c(Cl)cc4O3)(C1)C2)c1ccc(OC(F)(F)F)cn1 (centres unmarked) [Compound 132]")
"6.60 to 7.30"
